System: PC12 cells
Test: MTT toxicity (safety evaluation) on PC12 nerve cells
Assay type: cell-based
Details: PC12, 30 μM, 48 h
Method: The toxicity of each drug to PC12 cells was determined by MTT assay. […] The blue-purple crystal formazan can be dissolved by DMSO, and the absorbance value is measured by a microplate reader at a wavelength of 490 nm, which in turn reflects the number of living cells. […]
reported-metric: Rank (cytotoxicity standard) 48 h

substance_smiles=COc1cc(/C=C2\CNC/C(=C\c3cc(Cl)c(O)c(OC)c3)C2=O)cc(Cl)c1O assayed_system="PC12 cells" reported_metric="Rank (cytotoxicity standard) 48 h" value_observed=1
substance_smiles=COc1cc(/C=C2\CN(C(C)C)C/C(=C\c3cc(Cl)c(O)c(OC)c3)C2=O)cc(Cl)c1O assayed_system="PC12 cells" reported_metric="Rank (cytotoxicity standard) 48 h" value_observed=4
substance_smiles=CN1C/C(=C\c2cc(Cl)c(O)c(Cl)c2)C(=O)/C(=C/c2cc(Cl)c(O)c(Cl)c2)C1 assayed_system="PC12 cells" reported_metric="Rank (cytotoxicity standard) 48 h" value_observed=1
substance_smiles=COc1cc(/C=C2\CN(C)C/C(=C\c3cc(Cl)c(O)c(OC)c3)C2=O)cc(Cl)c1O assayed_system="PC12 cells" reported_metric="Rank (cytotoxicity standard) 48 h" value_observed=3
substance_smiles=CCN1C/C(=C\c2cc(Cl)c(O)c(Cl)c2)C(=O)/C(=C/c2cc(Cl)c(O)c(Cl)c2)C1 assayed_system="PC12 cells" reported_metric="Rank (cytotoxicity standard) 48 h" value_observed=1
substance_smiles=CC(C)N1C/C(=C\c2cc(Cl)c(O)c(Cl)c2)C(=O)/C(=C/c2cc(Cl)c(O)c(Cl)c2)C1 assayed_system="PC12 cells" reported_metric="Rank (cytotoxicity standard) 48 h" value_observed=1
substance_smiles=O=C1/C(=C/c2cc(Cl)c(O)c(Cl)c2)CNC/C1=C\c1cc(Cl)c(O)c(Cl)c1 assayed_system="PC12 cells" reported_metric="Rank (cytotoxicity standard) 48 h" value_observed=0

----------
system: PC12 cells; test: MTT toxicity (safety evaluation) on PC12 nerve cells; format: cell-based; settings: PC12, 7.5 μM, 48 h
reported-metric: Rank (cytotoxicity standard) 48 h

compound="CN1C/C(=C\\c2cc(Cl)c(O)c(Cl)c2)C(=O)/C(=C/c2cc(Cl)c(O)c(Cl)c2)C1 [CAK02]" assayed_system="PC12 cells" value_observed=0
compound="CC(C)N1C/C(=C\\c2cc(Cl)c(O)c(Cl)c2)C(=O)/C(=C/c2cc(Cl)c(O)c(Cl)c2)C1 [CAK04]" assayed_system="PC12 cells" value_observed=0
compound="COc1cc(/C=C2\\CNC/C(=C\\c3cc(Cl)c(O)c(OC)c3)C2=O)cc(Cl)c1O [CAK06]" assayed_system="PC12 cells" value_observed=1
compound="CCN1C/C(=C\\c2cc(Cl)c(O)c(Cl)c2)C(=O)/C(=C/c2cc(Cl)c(O)c(Cl)c2)C1 [CAK03]" assayed_system="PC12 cells" value_observed=1
compound="COc1cc(/C=C2\\CN(C(C)C)C/C(=C\\c3cc(Cl)c(O)c(OC)c3)C2=O)cc(Cl)c1O [CAK05]" assayed_system="PC12 cells" value_observed=2
compound="COc1cc(/C=C2\\CN(C)C/C(=C\\c3cc(Cl)c(O)c(OC)c3)C2=O)cc(Cl)c1O [CAK07]" assayed_system="PC12 cells" value_observed=3
compound="O=C1/C(=C/c2cc(Cl)c(O)c(Cl)c2)CNC/C1=C\\c1cc(Cl)c(O)c(Cl)c1 [CAK01]" assayed_system="PC12 cells" value_observed=0
